So I've got a bunch of molecules here, and I need their growth values.
# System: 786-0 renal
# protocol details: NCI-60 one-dose screen, 48 h (100 = growth as untreated, 0 = no growth, -100 = all killed)
# reported conditions: 10 µM unless noted
The panel holds about 83,000 compounds, 20% with a hit somewhere; the sample as a whole holds those more often. Calls of active or inactive are those of the source. Rule for the calls: active = growth percent below 10; inactive = the rest.

{"molecule": "COc1ccc2nc(N=Nc3c(O)ccc4ccccc34)sc2c1", "target": "786-0 renal", "growth": "14.7% (inactive)"}
{"molecule": "NC(=O)c1ccc[n+](CC(=O)N2CCN(c3cc4c(cc3F)c(=O)c(C(=O)O)cn4C3CC3)CC2)c1", "target": "786-0 renal", "growth": "74.6% (inactive)"}
{"molecule": "Cn1ncc2c(Nc3ccccc3Cl)nc(Cl)nc21", "target": "786-0 renal", "growth": "103% (inactive)"}

Batch request: growth per item, same order as input.
1. COc1ccc(CNCCN2C(=O)c3ccc4c5c(ccc(c35)C2=O)C(=O)N(CCNCc2ccc(OC)cc2)C4=O)cc1
2. COc1cccc2c1C(=O)c1c(O)c3c(c(O)c1C2=O)C[C@@](O)(C(=O)CO)C[C@@H]3O[C@H]1C[C@H](N)[C@@H](O)[C@H](C)O1
3. Cc1c2c(cc[n+]1Cc1ccccc1)c1ccc(OCC3CCCCC3)cc1n2CC1CCCCC1
4. COc1ccc2c(/C=C3/C(=O)NC(=S)NC3C)cc(=O)oc2c1 (stereo not drawn)

Reply:
1. -76.5% (active)
2. 12.1% (inactive)
3. -91.3% (active)
4. 95.8% (inactive)

Batch request: growth per item, same order as input.
1. O=C(Nc1nc(-c2ccc(Br)cc2)cs1)c1cc(-c2ccc(Br)cc2)nc2ccc(Cl)cc12
2. Cc1c2c(cc[n+]1Cc1ccc(F)cc1)c1ccc(OCc3cccc(F)c3)cc1n2Cc1cccc(F)c1
3. COc1ccc(C(O)c2cc3c(N)c(C(=O)Nc4cccc(OC)c4)sc3nc2C)cc1 (stereo not drawn)
4. COc1nccnn1
5. CC1(C)CN(Cc2ccccc2)CCN1Cc1ccccc1
6. O=S(=O)(NCCCNc1nccc(-c2c(-c3ccc(F)c(O)c3)nc3sccn23)n1)c1ccc(F)cc1

Reply:
94.3% (inactive)
-85.8% (active)
33.9% (inactive)
104% (inactive)
99.6% (inactive)
14.1% (inactive)
